Reference source: ChEMBL document CHEMBL4118138

EXPERIMENT_SUMMARY: Half life in beagle dog at 5 mg/kg, po by LC-MS/MS method
Format: ADME, organism-based, Canis lupus familiaris
ASSAY_SETUP: in vivo
RESULT_TYPE: half-life (h)
One number for each entry, in h.

Return half-life for the following compound: `O=C(O)CNC(=O)C1=C(O)CCN(Cc2ccc(Oc3ccc(Cl)cc3)nc2)C1=O`
3.5

----------
EXPERIMENT_SUMMARY: Drug metabolism in human hepatocytes assessed as oxidative metabolism at 1 uM after 4 hrs by LC-MS/MS method
Type: ADME, cell-based, Hepatocyte
ASSAY_SETUP: read-out: Drug metabolism
RESULT_TYPE: metabolised at 4 h, 1 µM (%)
Answers are plain numbers, in %.

State its metabolised at 4 h, 1 µM: `O=C([O-])CNC(=O)C1=C(O)CCN(Cc2ccc(Oc3ccc(Cl)cc3)nc2)C1=O.[Na+]`
5.7

----------
EXPERIMENT_SUMMARY: Total clearance in beagle dog at 1 mg/kg, iv by LC-MS/MS method
Format: ADME, organism-based, Canis lupus familiaris
ASSAY_SETUP: in vivo
RESULT_TYPE: clearance
Write the quantity with the unit trailing the number.

Hello, please tell me recorded clearance for this one: `O=C(O)CNC(=O)C1=C(O)CCN(Cc2ccc(Oc3ccc(Cl)cc3)nc2)C1=O`
3.28 mL/min/kg

----------
EXPERIMENT_SUMMARY: Effective half life in Sprague-Dawley rat at 1 mg/kg, iv
Type: ADME, organism-based
ASSAY_SETUP: in vivo, read-out: t1/2eff (converted)
For each of the compounds below, state its half-life.
Answers are plain numbers, in min.

Please review the entries below; each comes with its answer.
[
  {
    "ENTRY_SMILES": "O=C([O-])CNC(=O)C1=C(O)CCN(Cc2ccc(OCCC3CC3)nc2)C1=O.[Na+]",
    "half-life [min]": 25.2
  },
  {
    "ENTRY_SMILES": "O=C([O-])CNC(=O)C1=C(O)CCN(Cc2ccc(OC3CC3)cc2)C1=O.[Na+]",
    "half-life [min]": 33
  },
  {
    "ENTRY_SMILES": "O=C([O-])CNC(=O)C1=C(O)CCN(Cc2ccc(OCCC3CC3)cc2)C1=O.[Na+]",
    "half-life [min]": 27.6
  }
]

Give me measured half-life, please, for this compound: `Cc1ccc(Oc2ccc(CN3CCC(O)=C(C(=O)NCC(=O)O)C3=O)cn2)cc1`
43.2

----------
EXPERIMENT_SUMMARY: Protein binding in beagle dog plasma at 0.3 ug/ml after 8 hrs by equilibrium dialysis method
Type: ADME, cell-free, Canis lupus familiaris
ASSAY_SETUP: read-out: PPB (converted)
RESULT_TYPE: fraction unbound at 8 h, 0.3 ug/ml
One number for each entry.

Given the compound `O=C([O-])CNC(=O)C1=C(O)CCN(Cc2ccc(Oc3ccc(Cl)cc3)nc2)C1=O.[Na+]` , write its reported fraction unbound at 8 h, 0.3 ug/ml.
0.011

----------
EXPERIMENT_SUMMARY: Effective half life in Sprague-Dawley rat at 1 mg/kg, iv
Format: ADME, organism-based
ASSAY_SETUP: in vivo, read-out: t1/2eff (converted)
// NB: equality with 2 h counts as criterion not met; only half-life strictly below is criterion met

// below: answered molecules
[
  {
    "ENTRY_SMILES": "O=C(O)CNC(=O)C1=C(O)CCN(Cc2ccc(C(F)(F)F)cc2)C1=O",
    "LABEL": "criterion not met"
  },
  {
    "ENTRY_SMILES": "Cc1ccc(Oc2ccc(CN3CCC(O)=C(C(=O)NCC(=O)O)C3=O)cc2)cc1",
    "LABEL": "criterion met"
  },
  {
    "ENTRY_SMILES": "O=C(O)CNC(=O)C1=C(O)CCN(Cc2ccc(Oc3ccc(Cl)cc3)nc2)C1=O",
    "LABEL": "criterion met"
  },
  {
    "ENTRY_SMILES": "O=C(O)CNC(=O)C1=C(O)CCN(Cc2ccc(OC(F)(F)F)cc2)C1=O",
    "LABEL": "criterion not met"
  }
]

Hello, I'm reviewing records and need to know if half-life of `O=C(O)CNC(=O)C1=C(O)CCN(Cc2ccc(OCC3CC3)cc2)C1=O` is below 2 h. Could you check?
criterion met

----------
Please go through the items and note down their fraction unbound at 4 h, 1 ug/ml.
EXPERIMENT_SUMMARY: Protein binding in human serum at 1 ug/ml after 4 hrs by equilibrium dialysis method
Type: ADME, cell-free
ASSAY_SETUP: read-out: PB (converted)

Completed entries (count: 4):
[
  {
    "MOLECULE": "CC1CN(Cc2ccc(-c3ccccc3)cc2)C(=O)C(C(=O)NCC(=O)O)=C1O (stereo not given)",
    "fraction unbound at 4 h, 1 ug/ml": "< 0.005"
  },
  {
    "MOLECULE": "O=C(O)CNC(=O)C1=C(O)CCN(Cc2ccc(-c3ccccc3)cc2)C1=O",
    "fraction unbound at 4 h, 1 ug/ml": 0.011
  },
  {
    "MOLECULE": "O=C(O)CNC(=O)C1=C(O)CC2(CCCCC2)N(Cc2ccc(-c3ccccc3)cc2)C1=O",
    "fraction unbound at 4 h, 1 ug/ml": "< 0.006"
  },
  {
    "MOLECULE": "O=C(O)CNC(=O)C1=C(O)CC2(CCC2)N(Cc2ccc(-c3ccccc3)cc2)C1=O",
    "fraction unbound at 4 h, 1 ug/ml": 0.005
  }
]

Could you now look at the following molecule, please?
Please look at this molecule and report its fraction unbound at 4 h, 1 ug/ml: CC1CC(O)=C(C(=O)NCC(=O)O)C(=O)N1Cc1ccc(-c2ccccc2)cc1 (stereo not given)
< 0.006

----------
EXPERIMENT_SUMMARY: Protein binding in Sprague-Dawley rat serum at 1 ug/ml after 4 hrs by equilibrium dialysis method
Assay type: ADME, cell-free
ASSAY_SETUP: read-out: PB (converted)
RESULT_TYPE: fraction unbound at 4 h, 1 ug/ml

[
  {
    "MOLECULE": "CC1CC(O)=C(C(=O)NCC(=O)O)C(=O)N1Cc1ccc(-c2ccccc2)cc1 (stereo not given)",
    "RESULT_TYPE": "fraction unbound at 4 h, 1 ug/ml",
    "RECORDED_MEASUREMENT": "< 0.006"
  },
  {
    "MOLECULE": "O=C(O)CNC(=O)C1=C(O)CC2(CCCCC2)N(Cc2ccc(-c3ccccc3)cc2)C1=O",
    "RESULT_TYPE": "fraction unbound at 4 h, 1 ug/ml",
    "RECORDED_MEASUREMENT": "< 0.006"
  }
]

List the reported fraction unbound at 4 h, 1 ug/ml of each molecule below.
1. O=C(O)CNC(=O)C1=C(O)CCN(Cc2ccc(-c3ccccc3)cc2)C1=O
2. O=C(O)CNC(=O)C1=C(O)CC2(CCC2)N(Cc2ccc(-c3ccccc3)cc2)C1=O
3. CC1CN(Cc2ccc(-c3ccccc3)cc2)C(=O)C(C(=O)NCC(=O)O)=C1O (stereo not given)

1. 0.007
2. < 0.006
3. < 0.005

----------
EXPERIMENT_SUMMARY: Tmax in beagle dog at 5 mg/kg, po by LC-MS/MS method
Type: ADME, organism-based, Canis lupus familiaris
ASSAY_SETUP: in vivo
RESULT_TYPE: Tmax (min)
Give bare numbers, in min.

Quickly give me recorded Tmax for `O=C(O)CNC(=O)C1=C(O)CCN(Cc2ccc(Oc3ccc(Cl)cc3)nc2)C1=O`
45
